Molecular target: Ec FimHLD
Test: ELISA
Hi there, I'd appreciate the recorded EC50 for every entry that follows.
Give your result as the value with the unit written after it.

Query block: Which EC50 reading was recorded for the binder Ec3 B7 (antibody, V domains shown) VH: EVQLQQPGAELVRPGASVKMSCKASGYTFTIYNLHWVKQTPRQGLEWIGTIYPGDGDTSYNQKFKGKATLTVDKSSSTAYMQLSNLTSEDSAVYFCAREGDYGPWFAYWGQGTLVTVSA VL: QIVLTQSPAIMSASPGEKVTMTCRASSSVSSSYLHWYQQKSGASPKLWIYSSSNLASGVPARFSGSGSGTSYSLTINSVEAEDAATYYCQHYGSYPLTFGGGTKLEIKR ?
Result block: 0.0241 µg/mL

Query block: Fill in the blank: the reported EC50 of Kp1 2H04 (antibody, V domains shown) VH: EVQLQQSGAELVKPGASVKLSCKASGYTFTSYWMHWVKQRPGQGLEWIGLIHPNSSSTYYNEKFKTRATLTVDKSSSTAYMQLSSLTSEDSAVYYCARLGYGNSYWYFDVWGTGTTVTVSS VL: QIVLTQSPALMAASPGEKVTITCSVSSSISSSNLHWYQQKSETSPKPWIYGTSNLASGVPIRFSGSGSGTSYSLTISSLEAEDAATYYCQQWRSYPWTFGGGTKLEIKR is ____.
Result block: 0.0178 µg/mL

Query block: Name the recorded EC50 for Ec C12 (antibody, V domains shown) VH: QVQLKQSGPGLVAPSQSLSITCTVSGFSLTNYAISWVRQPPGKGLEWLGIIWTGGGTLYNSALKSRLSISKDNSKSQVFLKMNSLQTDDTARYYCARAYYSNYDWYFDVWDTGTTVTVSS VL: DIQMTQSPSSLSASLGDRVTISCSASQGISNYLNWYQQKPDGTVKLLIYYTSSLHSGVPSRFSGSGSGTDYSLTISNLEPEDIATYYCQQYSQVPYTFGGGTKLEIKR .
Result block: 0.0122 µg/mL

Query block: Request the reported EC50 associated with Kp 2B06 (antibody, V domains shown) VH: EVQLQQPGAELVKPGASVKLSCKASGYTFTNYWMHWVKHRPGRGLEWIGRIDPNSGGTKYNEKFKNKATLTVDNPSSTGYMQLSSLTSEDSAVYYCTRSGYDYPDYWGQGTTLTVSS VL: DIVLTQSPASLAVSLGQRATISCRASESVEYYGTSLMQWYQQKPGQPPKVLIYAASNVDSGVPPRFSGSGSGTDFSLNFHPVEEDDIAMYFCQQSRKVPWTFGGGTKLEIKR
Result block: 0.0092 µg/mL

Query block: Entry Kp 2C09 (antibody, V domains shown) VH: EVMLVESGEDLVKPGGSLKLSCIASGFTFSSYAMSWVRQTPEKRLEWVAYISSGGDYIYYTDTVKGRFTISRDNARNTLFLQMSSLKSEDTAMYYCTRDTGYYVSRYFDVWGTGTTVTVSS VL: DIVMTQSQKFMSTSVGDRVSVTCKASQNVGTNVAWYQQKPGQSPKALIYSASFRNSGVPDRFTGSGSGTDFTLTISNVQSEDLAEYFCHQYNNYPLTFGGGTKLEIKR : reported EC50 = ?
Result block: 0.0129 µg/mL

Query block: Which EC50 is reported for this binder? Kp1 1A02 (antibody, V domains shown) VH: EVQLQQSGPVLVKPGPSMKISCKASGFTFTDYYIHWVRQSHGKSLEWIGLVSPYNGGTYYNQKFKGKATLTVDSSSSTAYMELSSLTSEDSAVYYCARLGYYGDWYYFDYWGQGTPLTVSS VL: QIVLTQSPALMATSPGEKVTITCSVSSSISSSNLNWYQQKSETSPKPWIYGTSNLASGVPVRFSGSGSGTSYSLTISSMEAEDAATYYCQQWSSYPYTFGGGTKLEIKR
Result block: 0.0144 µg/mL

Query block: Recorded EC50 for Kp 1D09 (antibody, V domains shown) VH: EVQLQQPGAELVKPGASVKLSCKASGYTFTNYWIHWMKQRPGRGLEWIGRIEPNSGDTKYNEKIKSRATLTVDKPSSTAYMQLSSLTSEDSAVYYCARSGYDYPEAWGQGTTLTVSS VL: DIVLTQSPASLAVSPGQRATISCRASEGVEYYGTTLMQWYQQKPGQPPKLLIYAASNVESGVPARFSGSGSGTDFSLNIHPVEEDDIAMYFCQQSRKVSWTFGGGTKLEIKR , please?
Result block: 0.0227 µg/mL

Query block: What value of EC50 has been reported for the following binder? Kp 2G02 (antibody, V domains shown) VH: EVQLQQSGPVLVKPGPSVKISCKASGFTFTDYYMHWVKQSHGKSLEWIGLVYPYNGGTYYNQKFKGKATLTVDTSSSTAYMELNSLTSEDSAVYYCVRLGNGSSNEWYFDVWGTGTTVTVSS VL: QIVLTQSPALMAASPGEKVTITCSVSSSISSYNLHWYQQKSETSPKPWIYGTSNLASGVPVRFSGSGSGTSYSLTISSMEAEDAATYYCQQWRTYPWTFGGGTKLEIKR
Result block: 0.015 µg/mL

Query block: Look up EC50 for this binder: Kp 2D10 (antibody, V domains shown) VH: EVQLQQSGAELVKPGASVKLSCKASGYTFTTYWMHWMKQWPGQGLEWIGLIHPNSGSTYYNEKFKSKATLTVDKSSSTAYMQLSSLTSEDSAVYYCARFEELWGGYWYFDVWGTGTTVTVSS VL: QIVLTQSPALMAASPGEKVTITCSVSSSISSSNLHWYQQKSETSPKPWIYGTSNLASGVPVRFSGSGSGTSYSLTISSMEAEDAATYYCQQWSSYPYTFGGGTKLEIKR
Result block: 0.0119 µg/mL

Query block: Reported EC50 for Ec1 F7 (antibody, V domains shown) VH: EVQLQQPGPVLVKPGPSVKISCKASGFTFTDYFIHWVKQSHGKSLEWIGLVSPYNGGTYYNQQFKGKATLTVDTSSSTAYMDLNSLTSEDSAVYYCTRLLRGYWYFDVWGTGTTVTVSS VL: QIVLTQSPALMAASPGEKVTITCSVSSSIGSSNLHWYQQKSETSPKPWIYGTSNLASGVPVRFSGSGSGTSYSLTISSMEAEDAATYYCQQWSTYPYTFGGGTKLEIKR : what is it?
Result block: 0.0109 µg/mL
